molecular target: Ataxin-2 (Homo sapiens); assay: qHTS for Inhibitors of ATXN expression.; assay type: functional
The campaign covered roughly 400,000 compounds. About 2,100 (0.53%) were called active. Another 14% or so got no clear call; they are omitted. How the calls were made is not given here. What follows is part of a selection rich in actives, with near analogues and random picks from the rest.
Your response should consist of one outcome taken from active, inactive

// known answers, use as guide
>>> category_label("Cc1cc(C)c2ccc(N)nc2c1O")
"active"
>>> category_label("O=C1CCN2C=Nc3cccc4ccc1c2c34")
"inactive"
>>> category_label("Cc1c(CCC(=O)NC2CC2)c(=O)oc2cc(O)ccc12")
"inactive"
>>> category_label("CN(C)S(=O)(=O)c1ccc2oc(SCC(=O)c3c(N)n(C4CC4)c(=O)[nH]c3=O)nc2c1")
"inactive"
>>> category_label("CCOc1cc(/C=N\\NC(=O)Cc2ccccc2)ccc1OCC(=O)Nc1ccc(C)c(C)c1")
"active"
>>> category_label("COc1ccc(C(=O)C(CCCCC(CN(C)C)C(=O)c2ccc(OC)cc2)CN(C)C)cc1 (stereo not given)")
"active"
>>> category_label("COc1cc(/C=C2/C(=N)N3N=C(CC(=O)N4CCOCC4)SC3=NC2=O)ccc1OCc1ccccc1")
"inactive"
>>> category_label("COc1ccc(C(=O)NN=C2CCCC2)cc1")
"inactive"

Exercise: Test call for this compound, please: CCOC(=O)C1=NN(C(=O)c2ccc(OC)cc2)C(O)(c2ccc(Cl)cc2)C1 (stereo not given)
Solution: inactive

Exercise: Test call for this compound, please: COc1ccc(OC(F)(F)F)cc1CC1(C)C(=O)Nc2ccc(-c3ccsc3)cc21 (stereo not given)
Solution: active

Exercise: Test call for this compound, please: Cc1ccc(C2=CC(c3ccc(N(C)C)cc3)n3nnnc3N2)cc1 (stereo not given)
Solution: inactive

Exercise: Test call for this compound, please: O=C(Nc1ccc[n+](-c2nc3ccccc3nc2[N-]S(=O)(=O)c2ccccc2)c1)c1ccc(Cl)cc1
Solution: active
